This collection of values is drawn from patent US20060235215A1.

# measuredTarget: T1, O. sativa Cellulose Synthase Catalytic Subunit, RSW1-Like, bait fragment aa 316-583 (Oryza sativa, UniProt A2Y0X2 316-583)
# T1 construct: bait; also called OsCS; PN19707
# T1 sequence: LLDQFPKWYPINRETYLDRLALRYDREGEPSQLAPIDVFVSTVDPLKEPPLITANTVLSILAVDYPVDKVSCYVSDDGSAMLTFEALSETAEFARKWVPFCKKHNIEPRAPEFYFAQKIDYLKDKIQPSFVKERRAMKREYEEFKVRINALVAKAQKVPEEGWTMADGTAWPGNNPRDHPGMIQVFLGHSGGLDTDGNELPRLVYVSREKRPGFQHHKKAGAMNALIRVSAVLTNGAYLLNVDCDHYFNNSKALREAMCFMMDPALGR
# test: yeast two-hybrid
measurementType: binding result

binder="Novel Protein PN29119, Fragment, prey clone aa 1-155 (printed -53 to 155) (other, prey; AD fusion; output trait library; clone also holds a portion of the 5' untranslated region; also called OsPN29119) MEFEADGARWPEPRGDAAGAPPLERGDAPSPRFDSSRALRLLRELGSNVTEDLVVLMPNLLSFLKHDDPVVVNQSIASGTNLFAAVLEEMTLQINKCGRVDAWLEEMWAWTKQFKDAVHNLIHESVPVATKLFAVKFIETWILCFAPQSKSDRMQ" assayvalue=binds
binder="Novel Protein PN29084, Fragment, Similar to Soybean (Glycine max) Calcium-Dependent Protein Kinase, prey clone aa 1-253 (other, prey; AD fusion; output trait library; three clones; also called OsPN29084) ESGIFRQILRGKLDLESDPWPSISDSAKDLVRNMLIRDPTKRFTAHEVLCHPWIVDDAVAPDKPIDSAVLSRLKHFSAMNKLKKMALRVIAESLSEEEIGGLKELFKMIDTDNSGTITYDELKNGLKRVGSDLMEPEIQALMDAADIDNSGTIDYGEFLAATLHMNKLEREENLVSAFTFFDKDGSGFITIDELSQACEQFGLSDVHLEDMIKDVDQNNDGQIDYSEFAAMMRKGNAGGANAGGVTSTGGTGR" assayvalue=binds
binder="Novel Protein PN29116, Fragment, prey clone aa 1-169 (other, prey; AD fusion; output trait library; also called OsPN29116) GRKPVAAQHYNKGDKDGTSTGSRCTSVAWVPEREGIFVVSHSDGNLYVYDKCKDGNTECTFPAIKDPAQLMISHAKSSKSNPIARWHVCQGSINAISFSPDGAYLATVGRDGYLRVFDFSKEQLIFGGKSYYGALLCCTWSSDGKYLLTGGEDDLVQVWSMDDRKIVAW" assayvalue=binds
binder="O. sativa Aquaporin, prey clone aa 123-290 (other, prey; AD fusion; output trait library; also called OsPIP2A; OsPIP2a) RKVSLVRAILYIVAQCLGAICGVGLVNAFPNAYFNRYGGGANTLAAGYSKGTGLAAEIIGTFVLVYTVFSATDPKRNARDSHVPVLAPLPIGFAVFMVHLATIPITGTGINPARSIGAAVIFNNEKAWHNHWIFWVGPFVGAAIAAFYHQYILRAGAIKALGSFRSNA" assayvalue=binds

Short answer for O. sativa salT Gene Product, prey clone aa 6-145 (other, prey; AD fusion; output trait library; also called OsAAB53810; PN29086) IGPWGGNGGSAQDISVPPKKLLGVTIYSSDAIRSIAFNYIGVDGQEYAIGPWGGGESTSTEIKLGSSEQIKEISGTHGPVYDLADIVTYLKIVTSANNTYEAGVPNGKEFSIPLQDSGHVVGFFGRSGTLIDAIGIYVHP : binding result was binds

Short answer for O. sativa Cellulose Synthase Catalytic Subunit, RSW1-Like, prey clone aa 316-582 (enzyme, prey; AD fusion; input trait library; also called OsCS; PN19707) LLDQFPKWYPINRETYLDRLALRYDREGEPSQLAPIDVFVSTVDPLKEPPLITANTVLSILAVDYPVDKVSCYVSDDGSAMLTFEALSETAEFARKWVPFCKKHNIEPRAPEFYFAQKIDYLKDKIQPSFVKERRAMKREYEEFKVRINALVAKAQKVPEEGWTMADGTAWPGNNPRDHPGMIQVFLGHSGGLDTDGNELPRLVYVSREKRPGFQHHKKAGAMNALIRVSAVLTNGAYLLNVDCDHYFNNSKALREAMCFMMDPALG : binding result was binds

Short answer for Novel Protein PN29115, Fragment, Similar to A. thaliana 6,7-Dimethyl-8-Ribityllumazine Synthase Precursor, prey clone aa 1-188 (other, prey; AD fusion; output trait library; also called OsPN29115) VSFPYSPRPAALAAGARASRVSPVVVAAGGGHQRLMGSLTNTQGLRFGVVVARFNEIVTNLLLQGALETFERYSVKKENITVLSVPGSFEIPVAAQKLGKSGKFDANFVHWRCAFRGDTTHYGAVANSAASGVLSAGLSAEIPCIFGVLTCDDMDQALNRAGGKAGNKGAEAALTAIEMASLFQHHLA : binding result was binds

Short answer for Novel Protein PN29117, prey clone aa 1-151 (printed -7-151) (other, prey; AD fusion; output trait library; clone also holds a small portion (-7 to 0) of the 5' untranslated region; also called OsPN29117; BAG-like protein) MLVQRRDGDTGPAVRLRVSHGASFRDVAVPAHSTFGELKGVLTQATGVEPERQRLFFRGKEKSDNEFLHTAGVKDGAKLLLLEKPAPANVEQRAEPVIMDESMMKACEAVGRVRAEVDRLSAKVCDLEKSVFAGRKIEDKDFVVLTELLMM : binding result was binds

Short answer for Novel Protein PN29077, Fragment, Similar to A. thaliana DNA-Damage Inducible Protein DDI1-Like, prey clone aa 1-242 (other, prey; AD fusion; output trait library; four clones; also called OsPN29077) VEAQKKIEAAIRQKGIDENWEAALEHNPEAFARVVMLYVDMEVNGVPLKAFVDSGAQSTIISKSCAERCGLLRLLDQRYRGVAIGVGQSEILGRIHVAPIKIGHVFYPCSFTVLDAPNMEFLFGLDMLRKHQCIIDLKDNVLRVGGGEVSVPFLQEKDIPSHIRDEEKLSKLASLSQGAAGESSTAREKTPDAPPRAPTTGAPAVNPPQPQGGGDFEAKVTKLVELGFDRASVIQALKLFNG : binding result was binds

Short answer for Novel Protein PN29076, Fragment, prey clone aa 1-187 (other, prey; AD fusion; output trait library; also called OsPN29076) ERDISMVNSYPPSAFDCKGWNSASIFIYESDEEIQCLLDWLRDYDPREKELKDSILQWQRHFCHQSSSPLVDPPISGPKGEQLMELPNTKAAVILEQKYGLQLDQDTSDLPKKRGKKIKLSSEDRTYRCDCLEPVWPSRYHCLTCHETYLISTEFEGHNDGKCSKIHQSPDESRENDEPKVKVTKSD : binding result was binds

Short answer for O. sativa DNAJ Homologue, prey clone aa 1-92 (other, prey; AD fusion; output trait library; also called OsPN29113) CKVSYIDAILGTTVKVPTVDGMVDLKIPSGTQPGTTLVMSKKGVPLLGKSNARGDQLVRVQVEIPKRLSSDERKLIEELANLNKAQTANSRR : binding result was binds
